System: 485368-065-R4-J2-PDC spheroids with HUVEC/MSC, viability
PROTOCOL SUMMARY: Anticancer human tumor 485368-065-R4-J2-PDC patient-derived pancreatic carcinoma cell line growth inhibition [TAK]
MEASUREMENT CONTEXT: second compound 0.949 µM; first compound 0.1 µM; hits give low values
Procedure: Combinatorial screen of targeted agents with TAK-243 and ipatasertib in multi-cell type tumor spheroids […] Compounds. […] If the clinical Cmax for an agent had not been determined, the highest concentration tested was 10 microM. NCI60 Cell Culture. […] The optimal seeding densities for each of the cell lines at each time point assessed were determined prior to performing the concentration response studies. […]

{"COMPOUND": "CC(C)CC(NC(=O)CNC(=O)c1cc(Cl)ccc1Cl)B1OC(=O)CC(CC(=O)O)(C(=O)O)O1 (stereo not drawn) + CC(C)NCC(C(=O)N1CCN(c2ncnc3c2C(C)CC3O)CC1)c1ccc(Cl)cc1", "RESULT UNITS": "%", "viability, T/C": 12.5}
{"COMPOUND": "Cc1nc(NC(=O)N2CCCC2C(N)=O)sc1-c1ccnc(C(C)(C)C(F)(F)F)c1 (stereo not drawn) + CC(C)NCC(C(=O)N1CCN(c2ncnc3c2C(C)CC3O)CC1)c1ccc(Cl)cc1", "RESULT UNITS": "%", "viability, T/C": 92}
{"COMPOUND": "COC1CC2CCC(C)C(O)(O2)C(=O)C(=O)N2CCCCC2C(=O)OC(C(C)CC2CCC(OCCO)C(OC)C2)CC(=O)C(C)C=C(C)C(O)C(OC)C(=O)C(C)CC(C)C=CC=CC=C1C (stereo not drawn) + CC(C)NCC(C(=O)N1CCN(c2ncnc3c2C(C)CC3O)CC1)c1ccc(Cl)cc1", "RESULT UNITS": "%", "viability, T/C": 83.5}

* * *

System: 485368-065-R4-J2-PDC spheroids with HUVEC/MSC, viability
PROTOCOL SUMMARY: Anticancer human tumor 485368-065-R4-J2-PDC cell line growth inhibition [TAK];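 also: spheroids exposed to compounds for seven days before readout; 100% = DMSO vehicle control wells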
MEASUREMENT CONTEXT: second compound 30 µM; first compound 0.0316 µM; hits give low values

{"COMPOUND": "CC(C)n1nc(-c2ccc3oc(N)nc3c2)c2c(N)ncnc21 + CC(C)NCC(C(=O)N1CCN(c2ncnc3c2C(C)CC3O)CC1)c1ccc(Cl)cc1", "viability, T/C": "31.4%"}
{"COMPOUND": "COc1c(OCCCN2CCOCC2)ccc2c3n(c(=NC(=O)c4cnc(N)nc4)nc12)CCN3 + CC(C)NCC(C(=O)N1CCN(c2ncnc3c2C(C)CC3O)CC1)c1ccc(Cl)cc1", "viability, T/C": "38.8%"}
{"COMPOUND": "CC(C)(C)c1nc(-c2cccc(NS(=O)(=O)c3c(F)cccc3F)c2F)c(-c2ccnc(N)n2)s1 + CC(C)NCC(C(=O)N1CCN(c2ncnc3c2C(C)CC3O)CC1)c1ccc(Cl)cc1", "viability, T/C": "77.2%"}
{"COMPOUND": "CC(C)CC(NC(=O)CNC(=O)c1cc(Cl)ccc1Cl)B1OC(=O)CC(CC(=O)O)(C(=O)O)O1 (stereo unspecified) + CC(C)NCC(C(=O)N1CCN(c2ncnc3c2C(C)CC3O)CC1)c1ccc(Cl)cc1", "viability, T/C": "31.3%"}
{"COMPOUND": "COC1CC2CCC(C)C(O)(O2)C(=O)C(=O)N2CCCCC2C(=O)OC(C(C)CC2CCC(OCCO)C(OC)C2)CC(=O)C(C)C=C(C)C(O)C(OC)C(=O)C(C)CC(C)C=CC=CC=C1C (stereo unspecified) + CC(C)NCC(C(=O)N1CCN(c2ncnc3c2C(C)CC3O)CC1)c1ccc(Cl)cc1", "viability, T/C": "60.1%"}
{"COMPOUND": "Cc1nc(NC(=O)N2CCCC2C(N)=O)sc1-c1ccnc(C(C)(C)C(F)(F)F)c1 (stereo unspecified) + CC(C)NCC(C(=O)N1CCN(c2ncnc3c2C(C)CC3O)CC1)c1ccc(Cl)cc1", "viability, T/C": "71.5%"}
